The measurements presented in this section are drawn from PubChem BioAssay (NCI).

- Test system: OVCAR-8 ovarian
- EXPERIMENT NOTES: NCI tumour cell line growth inhibition, 48 h
EXPERIMENTAL ENDPOINT: TGI

Worked examples follow.
Reading of TGI for CN1CCC(O)(C(C)(C)C)CC1 with OVCAR-8 ovarian: > 100 µM

The observed TGI for CN1CCN(CCCOc2ccc3nc(Nc4ccc(Cl)c(C(F)(F)F)c4)ccc3c2)CC1 when tested with OVCAR-8 ovarian stands at 32.4 µM

Field TGI (system: OVCAR-8 ovarian) for entry O=C(NI1OC(=O)c2ccccc21)c1ccc(Cl)cc1 = > 100 µM

Reported OVCAR-8 ovarian TGI for item O=C1OC(c2ccccc2)=N/C1=C\c1cccc2ccccc12 was > 100 µM

More entries:
TGI for OVCAR-8 ovarian with input Cc1ccc(C(=O)CN(/C=C/C(=O)C(F)(F)F)c2ccc(S(N)(=O)=O)cc2)cc1 equals > 100 µM

Hey, OVCAR-8 ovarian data for c1ccc2c(c1)ccn2CCc1c[nH]c2ccccc12 : TGI came out at > 10 µM

// compound COc1cc(C(C)O)c[n+](CCc2c[nH]c3ccccc23)c1 (centres undefined) , assay OVCAR-8 ovarian, TGI value: > 100 µM

TGI for OVCAR-8 ovarian with input Cc1ccc2c(c1)C(C(=O)N[C@@H]1C(=O)N3[C@@H]1SC(C)(C)[C@@H]3C(=O)O)OCCC2 (some centres undefined) equals > 100 µM

Entry CC(C)(C)OC(=O)NC(Cc1ccc(OCc2ccccc2)cn1)C(=O)N1CCCCC1 (centres undefined) under OVCAR-8 ovarian had TGI of > 100 µM

Measured TGI (OVCAR-8 ovarian), entry CCCN1CCC(=O)N(CCC(F)(F)C(F)(F)C(F)(F)C(F)(F)C(F)(F)C(F)(F)F)C1=S : > 100 µM

====

- Test system: DU-145 prostate
- EXPERIMENT NOTES: NCI tumour cell line growth inhibition, 48 h
# TGI annotations

Memo: O=C(NCCCNCCCNC(=O)c1cc(-c2ccccc2)nc2ccccc12)c1cc(-c2ccccc2)nc2ccccc12 , reported TGI: 3.08 µM

Oc1c(CN2CCOCC2)ccc2cccnc12 yielded TGI of > 10 µM

Form: molecule = COc1cc(-c2ccc3c(c2)NC(=O)/C3=C\c2ccc[nH]2)ccc1O ; TGI = > 30.2 µM

TGI reading for O=C(N/N=C/c1ccc(Cl)cc1)c1ccc(C(F)(F)F)nc1Nc1cccc(C(F)(F)F)c1 : 10.8 µM

The molecule O=C(N/N=C/c1ccccc1)c1c(-c2cccnc2)cnc2ccccc12 showed TGI equal to > 100 µM

More entries:
So for Cc1ccc2c(c1)C(C(=O)N[C@@H]1C(=O)N3[C@@H]1SC(C)(C)[C@@H]3C(=O)O)OCCC2 (some centres undefined) , the logged TGI turned out to be > 100 µM

Value of TGI reported for the molecule CC(=O)OCC12C(=O)C[C@@H](C)C3(CC(c4ccoc4)OC3=O)C1CCC(OC(C)=O)C21CO1 (some centres undefined) is > 100 µM

Reported TGI for C=C1C(=O)O[C@H]2[C@H]1CC/C(COC(=O)C(=O)c1cn(Cc3ccccc3)c3ccccc13)=C\CC[C@@]1(C)O[C@@H]21 was 11.3 µM

Recorded result, C[N+](C)(C)CC1CCCCCCCCCCC1=O (centres undefined) , TGI: > 100 µM
